The measured values listed here are drawn from patent US20230009608A1.

target: GRK2 (Homo sapiens, UniProt P25098); construct: purchased SignalChem A14-10G; assay: ADPGlo GRK2 Inhibition Assay (Example 8); format: biochemical; settings: Enzyme Assay A, ADPGlo (Example 8); read-out: A: Enzymatic GRK2: IC50 (nM) (Example 8)

molecule	IC50 / nM
O=C(NCc1ccccc1-n1cncn1)c1cccc(NCc2nnc(-c3ccncc3)[nH]2)c1	19
Cn1c(CNc2cccc(C(=O)N[C@H](CCO)c3ccccc3)c2)nnc1-c1ccncn1	9.54
Cn1c(CNc2cccc(C(=O)N[C@@H]3COCc4ccccc43)c2)nnc1-c1ccncc1F	227
Cn1c(CNc2cccc(C(=O)NCc3cccc(C#N)c3)c2)nnc1-c1ccncn1 [drawing 591]	2.7
O=C(N[C@@H]1COc2ccccc21)c1cccc(NCc2nnc(-c3ccncn3)n2CCO)c1	1.95
Cn1cc(CNC(=O)c2cccc(NCc3nnc(-c4ccncn4)n3C)c2)cn1	36
Cc1cccc2c1OCC[C@@H]2NC(=O)c1cccc(NCc2nnc(-c3ccncn3)n2C)c1	15
O=C(N[C@@H]1COCc2c(Cl)cccc21)c1cccc(NCc2nnc(-c3ccncc3)n2CCO)c1	9.91
Cc1ccc(C(CO)NC(=O)c2cccc(NCc3nnc(-c4ccncn4)n3C)c2)cc1 (stereo not shown) [drawing 575]	3.3
O=C(N[C@H]1COCc2c(Cl)cccc21)c1cccc(NCc2nnc(-c3ccncc3)n2CCO)c1	7.18
Cn1c(CNc2cccc(C(=O)NCc3cccc4ncccc34)c2)nnc1-c1ccncn1	11
COc1cccc(F)c1CNC(=O)c1cccc(NCc2nnc(-c3ccncn3)n2C)c1	16
CNS(=O)(=O)c1cccc(F)c1CNC(=O)c1cccc(NCc2nnc(-c3ccncc3)n2C)c1	15.2
Cc1nn(C)c(C)c1CNC(=O)c1cccc(NCc2nnc(-c3ccncn3)n2C)c1	26
Cc1nnc(CNC(=O)c2cccc(NCc3nnc(-c4ccncc4)[nH]3)c2)n1C1CC1	19
Cn1c(CNc2cccc(C(=O)N[C@H]3CCOc4cccnc43)c2)nnc1-c1ccncn1	144
COC[C@H](NC(=O)c1cccc(NCc2nnc(-c3ccncn3)n2C)c1)c1cccnc1	46
Cn1c(CNc2cccc(C(=O)NCc3ccon3)c2)nnc1-c1ccncn1	23
O=C(NCc1nncn1C1CC1)c1cccc(NCc2nnc(-c3ccncc3)[nH]2)c1	45

---

Target: GRK2 (Homo sapiens, UniProt P25098)
Construct: purchased SignalChem A14-10G
Assay: ADPGlo GRK2 Inhibition Assay (Example 8)
Assay type: biochemical
Settings: ADPGlo GRK2 enzyme assay; read-out: A: Enzymatic GRK2: IC50 (nM) (Example 8)
Protocol: HTS was performed using 1 μM compound. Compounds were dissolved in 100% DMSO, serially diluted tree-fold from 100 μM concentration to 46 nM and transferred (50 nL) into assay ready plate. Materials: GRK2 was purchased from SignalChem (Cat #A14-10G, Lot #X^645-3). […] HTS protocol: Take 384 well plate with 50 nL of compound in columns 3-22/DMSO solution 1-2,23-24. […] Read plate in Luminescent modeon BMG PheraStar FSX (gain=3600). Data Analysis: Data were analyzed in GraphPad Prism 8.0.2. […]
Form field: log10 of IC50 (one value per entry).
metric: log10 of IC50 (log10 of the value in nM)

compound	log10 of IC50
Cn1c(CNc2cccc(C(=O)NC3(CO)CCOc4ccccc43)c2)nnc1-c1ccncn1 (stereo not shown)	2.45
CN1CC[C@H](NC(=O)c2cccc(NCc3nnc(-c4ccncn4)n3C)c2)c2ccccc21	1.93
Cn1c(CNc2cccc(C(=O)NC3(CO)CCCc4ccccc43)c2)nnc1-c1ccncn1 (stereo not shown)	2.81
Cn1c(CNc2cccc(C(=O)N[C@H](C#N)c3cc(F)ccc3F)c2)nnc1-c1ccncn1	1.25
Cn1c(CNc2cccc(C(=O)NC3CCS(=O)(=O)c4ccccc43)c2)nnc1-c1ccncn1 (stereo not shown)	1.26
CC1Oc2ccccc2C1NC(=O)c1cccc(NCc2nnc(-c3ccncn3)n2C)c1 (stereo not shown)	0.87
Cn1c(CNc2cccc(C(=O)NC3CC(=O)c4ccccc43)c2)nnc1-c1ccncn1 (stereo not shown)	1.28
Cc1cccc2ncc(CNC(=O)c3cccc(NCc4nnc(-c5ccncc5)[nH]4)c3)n12	0.95
Cc1cccnc1CNC(=O)c1cccc(NCc2nnc(-c3ccncc3F)n2C)c1	2.49
Cn1c(CNc2cccc(C(=O)NCc3ccc(C(F)F)nc3)c2)nnc1-c1ccncn1	1.65
Cn1c(CNc2cccc(C(=O)NCc3cnn(C(C)(C)C)c3)c2)nnc1-c1ccncn1	2.13
Cn1c(CNc2cccc(C(=O)NC3CCCc4[nH]c(=O)ccc43)c2)nnc1-c1ccncn1 (stereo not shown)	2.59
Cc1ccc(CNC(=O)c2cccc(NCc3nnc(-c4ccncn4)n3C)c2)nc1C	2.26
COc1cccc([C@H](C)NC(=O)c2cccc(NCc3nnc(-c4ccncc4F)n3C)c2)c1	1.06
Cn1c(CNc2cccc(C(=O)NC3(c4ncc[nH]4)CC3)c2)nnc1-c1ccncn1	2.87
C[C@@H](NC(=O)c1cccc(NCc2nnc(-c3ccncc3)n2C)c1)c1ncccc1Cl	1.06
COc1ccc(F)c(CNC(=O)c2cccc(NCc3nnc(-c4ccncn4)n3C)c2)c1	1.30
Cc1cc(C)c(CNC(=O)c2cccc(NCc3nnc(-c4ccncn4)n3C)c2)c(=O)[nH]1	1.17
C#Cc1ccccc1CNC(=O)c1cccc(NCc2nnc(-c3ccncn3)n2C)c1	1.67

---

Molecular target: GRK2 (Homo sapiens, UniProt P25098)
Construct: purchased SignalChem A14-10G
Assay: ADPGlo GRK2 Inhibition Assay (Example 8)
Format: biochemical
Conditions: ADPGlo GRK2 enzyme assay; read-out: A: Enzymatic GRK2: IC50 (nM) (Example 8)
Protocol: HTS was performed using 1 μM compound. Compounds were dissolved in 100% DMSO, serially diluted tree-fold from 100 μM concentration to 46 nM and transferred (50 nL) into assay ready plate. Materials: GRK2 was purchased from SignalChem (Cat #A14-10G, Lot #X^645-3). […] HTS protocol: Take 384 well plate with 50 nL of compound in columns 3-22/DMSO solution 1-2,23-24. […] Read plate in Luminescent modeon BMG PheraStar FSX (gain=3600). Data Analysis: Data were analyzed in GraphPad Prism 8.0.2. […]
metric: IC50 (nM)

compound	metric	obs_value
Cn1c(CNc2cccc(C(=O)NCc3cccnc3N3CCOCC3)c2)nnc1-c1ccncn1	IC50	176
C[C@H](NC(=O)c1cccc(NCc2nnc(-c3ccncn3)n2C)c1)c1ncccc1Cl	IC50	9.6
Cc1ccccc1C(CN1CCOCC1)NC(=O)c1cccc(NCc2nnc(-c3ccncn3)n2C)c1 (stereo not drawn)	IC50	505
[2H]C([2H])(Nc1cccc(C(=O)N[C@@H]2COc3ccccc32)c1)c1nnc(-c2ccncn2)n1CCO	IC50	3.76
Cc1ccnc(CNC(=O)c2cccc(NCc3nnc(-c4ccncn4)n3C)c2)c1F	IC50	50.2
CN1CCc2ccccc2C(NC(=O)c2cccc(NCc3nnc(-c4ccncn4)n3C)c2)C1=O (stereo not drawn)	IC50	253
COc1cccc([C@@H](C)NC(=O)c2cccc(NCc3nnc(-c4ccncn4)n3CCO)c2)c1	IC50	4.91
Cn1c(CNc2cccc(C(=O)NCc3c4c(n[nH]c3=O)CCCC4)c2)nnc1-c1ccncn1	IC50	531
Cc1cc(C)n(C)c(=O)c1CNC(=O)c1cccc(NCc2nnc(-c3ccncn3)n2C)c1	IC50	9.97

---

Reported IC50 values follow for various molecules
Molecular target: GRK2 (Homo sapiens, UniProt P25098)
Construct: purchased SignalChem A14-10G
Sequence (P25098 1-689): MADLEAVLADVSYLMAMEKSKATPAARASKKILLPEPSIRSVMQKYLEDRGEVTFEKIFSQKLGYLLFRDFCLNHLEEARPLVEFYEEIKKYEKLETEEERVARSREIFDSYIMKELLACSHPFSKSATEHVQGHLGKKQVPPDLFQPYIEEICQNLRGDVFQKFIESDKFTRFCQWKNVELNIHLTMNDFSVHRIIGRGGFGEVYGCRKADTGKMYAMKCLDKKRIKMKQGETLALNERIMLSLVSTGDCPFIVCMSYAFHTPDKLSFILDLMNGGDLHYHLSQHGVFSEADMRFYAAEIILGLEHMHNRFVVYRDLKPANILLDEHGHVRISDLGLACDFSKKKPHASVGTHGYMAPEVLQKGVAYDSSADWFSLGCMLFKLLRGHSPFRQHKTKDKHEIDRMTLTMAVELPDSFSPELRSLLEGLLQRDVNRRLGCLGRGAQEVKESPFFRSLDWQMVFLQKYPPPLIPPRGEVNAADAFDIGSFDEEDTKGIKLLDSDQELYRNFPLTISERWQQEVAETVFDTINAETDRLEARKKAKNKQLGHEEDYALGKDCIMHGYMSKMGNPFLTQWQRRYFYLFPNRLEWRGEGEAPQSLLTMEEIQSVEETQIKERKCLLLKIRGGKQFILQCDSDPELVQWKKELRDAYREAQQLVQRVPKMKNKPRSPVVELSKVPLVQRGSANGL
Assay: ADPGlo GRK2 Inhibition Assay (Example 8)
Format: biochemical
Conditions: ADPGlo GRK2 enzyme assay; read-out: A: Enzymatic GRK2: IC50 (nM) (Example 8)
metric: IC50 (nM)

molecule	metric	unit_tag	obs_value
Cn1c(CNc2cccc(C(=O)N[C@H]3CCOc4c(Cl)cccc43)c2)nnc1-c1ccncn1	IC50	nM	33.6
COc1cccc([C@H](C)NC(=O)c2cccc(NCc3nnc(-c4ccncc4)[nH]3)c2)c1	IC50	nM	17.5
COc1ccc(C(C)NC(=O)c2cccc(NCc3nnc(-c4ccncn4)n3C)c2)cn1 (stereo not shown)	IC50	nM	22.6
Cn1c(CNc2cccc(C(=O)N[C@H]3COCc4ccccc43)c2)nnc1-c1ccncn1	IC50	nM	66
Cc1cccnc1[C@@H](C)NC(=O)c1cccc(NCc2nnc(-c3ccncn3)n2C)c1	IC50	nM	26
COc1ncc(Br)cc1CNC(=O)c1ccnc(NCc2nnc(-c3ccncn3)n2C)c1	IC50	nM	28.1
CNS(=O)(=O)c1cccc(F)c1CNC(=O)c1cccc(NCc2nnc(-c3ccncn3)n2C)c1	IC50	nM	7.36
Cn1c(CNc2cccc(C(=O)NCc3ccc(F)c(F)c3)c2)nnc1-c1ccncn1	IC50	nM	63.7
COc1ncc(Br)cc1CNC(=O)c1cccc(NCc2nnc(-c3ccncc3)[nH]2)c1	IC50	nM	10.2
Cn1c(CNc2cccc(C(=O)NC3CCCS(=O)(=O)c4ccccc43)c2)nnc1-c1ccncn1 (stereo not shown)	IC50	nM	194
COc1ccc([C@@H](C)NC(=O)c2cccc(NCc3nnc(-c4ccncn4)n3C)c2)c(OC)c1	IC50	nM	8.56
Cn1c(CNc2cccc(C(=O)NCC3COc4ccccc43)c2)nnc1-c1ccncn1 (stereo not shown)	IC50	nM	54.7
COc1ccc([C@H](C)NC(=O)c2cccc(NCc3nnc(-c4ccncn4)n3C)c2)c(OC)c1	IC50	nM	310
Cn1c(CNc2cccc(C(=O)N[C@H](CO)c3cc(F)ccc3F)c2)nnc1-c1ccncn1	IC50	nM	43.4
Cn1c(CNc2cccc(C(=O)NCc3ccccc3CN3CCC(O)C3)c2)nnc1-c1ccncn1 (stereo not shown)	IC50	nM	136
CN1CC[C@@H](NC(=O)c2cccc(NCc3nnc(-c4ccncn4)n3C)c2)c2ccccc21	IC50	nM	21
Cn1c(CNc2cccc(C(=O)N[C@@H]3CCOc4ccccc43)c2)nnc1-c1ccncn1	IC50	nM	23
CNc1ncccc1CNC(=O)c1cccc(NCc2nnc(-c3ccncn3)n2C)c1	IC50	nM	18.3
